Attribution: patent US5889026A

target.or.system: 3H-Prazosine binding
assay.details: 3H-Prazosine binding
measurement.parameters: rat brain membranes (minus cerebellum and medulla oblongata); 0.2 nM 3H-Prazosine; 30 minutes at room temperature, pH 7.4
attribute.measured: IC50 (µM)

{"columns": ["molecule", "target.or.system", "attribute.measured", "output.unit", "test.value"],
 "data": [
  ["Cc1ccc(CC2(O)CCN(CCNC(=O)c3ccc(O)cc3)CC2)cc1 [R/37]", "3H-Prazosine binding", "IC50", "µM", 5.3]
]}

[1] O=C(CN1CCC(O)(Cc2ccccc2)CC1)Nc1ccc(O)cc1 [J/23]
[2] O=C(NCCN1CCC(O)(Cc2ccccc2)CC1)c1ccc(O)cc1 [Q/36]
[3] Oc1ccc(CC(O)CN2CCC(O)(Cc3ccccc3)CC2)cc1 (racemic) [L/30]
[4] Cc1ccc(CC2(O)CCN(C/C=C/c3ccc(O)cc3)CC2)cc1 [V/41]
List items by IC50 in falling order. I'd appreciate it if you listed the labels in the requested order.
1, 3, 2, 4

====

target.or.system: 3H-Ro 25-6981 binding (NMDA receptor) (Rattus norvegicus, UniProt P35439+Q00960)
Construct: NR1 splice forms mixed
Sequence (Q00960 27-1482, other chains not shown): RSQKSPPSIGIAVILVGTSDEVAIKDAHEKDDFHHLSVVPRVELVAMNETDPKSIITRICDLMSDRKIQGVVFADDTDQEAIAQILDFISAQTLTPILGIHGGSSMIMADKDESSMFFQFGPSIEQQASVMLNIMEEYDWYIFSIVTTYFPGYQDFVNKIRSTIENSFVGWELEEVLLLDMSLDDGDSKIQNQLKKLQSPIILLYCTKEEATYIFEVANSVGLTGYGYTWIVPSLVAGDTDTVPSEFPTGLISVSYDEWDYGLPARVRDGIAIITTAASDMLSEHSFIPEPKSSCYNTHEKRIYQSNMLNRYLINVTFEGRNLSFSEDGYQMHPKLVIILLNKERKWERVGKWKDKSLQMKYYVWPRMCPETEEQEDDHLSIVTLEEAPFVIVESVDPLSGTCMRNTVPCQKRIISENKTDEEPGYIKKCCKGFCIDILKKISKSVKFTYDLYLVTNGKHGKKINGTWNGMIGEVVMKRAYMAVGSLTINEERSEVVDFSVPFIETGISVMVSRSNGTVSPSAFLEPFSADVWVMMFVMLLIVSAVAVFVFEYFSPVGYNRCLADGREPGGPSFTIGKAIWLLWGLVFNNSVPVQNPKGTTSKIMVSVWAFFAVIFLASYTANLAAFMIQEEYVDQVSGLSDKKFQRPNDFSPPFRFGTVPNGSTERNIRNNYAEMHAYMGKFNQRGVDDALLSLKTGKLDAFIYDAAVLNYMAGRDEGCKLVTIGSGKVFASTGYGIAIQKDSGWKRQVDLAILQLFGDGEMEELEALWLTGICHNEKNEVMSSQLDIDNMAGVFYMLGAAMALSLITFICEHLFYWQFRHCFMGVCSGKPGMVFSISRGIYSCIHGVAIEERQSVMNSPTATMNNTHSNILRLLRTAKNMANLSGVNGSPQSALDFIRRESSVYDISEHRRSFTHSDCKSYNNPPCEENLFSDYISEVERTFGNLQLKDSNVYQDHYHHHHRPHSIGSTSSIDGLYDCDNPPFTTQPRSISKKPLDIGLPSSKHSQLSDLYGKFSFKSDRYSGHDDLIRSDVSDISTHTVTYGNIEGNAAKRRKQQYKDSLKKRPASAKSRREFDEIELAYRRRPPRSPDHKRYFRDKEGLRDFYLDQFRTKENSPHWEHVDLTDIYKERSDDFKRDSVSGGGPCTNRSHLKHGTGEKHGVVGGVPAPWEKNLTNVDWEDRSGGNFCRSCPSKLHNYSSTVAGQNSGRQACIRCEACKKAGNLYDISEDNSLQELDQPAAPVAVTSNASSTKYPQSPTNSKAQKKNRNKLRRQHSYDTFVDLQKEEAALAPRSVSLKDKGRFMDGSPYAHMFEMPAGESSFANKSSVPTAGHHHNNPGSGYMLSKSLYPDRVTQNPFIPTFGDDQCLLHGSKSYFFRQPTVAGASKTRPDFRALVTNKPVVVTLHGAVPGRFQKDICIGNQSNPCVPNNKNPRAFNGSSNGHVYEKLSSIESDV
assay.details: 3H-Ro 25-6981 binding
measurement.parameters: rat brain membranes (minus cerebellum and medulla oblongata); 5 nM 3H-Ro 25-6981; 2 hours at 4° C., pH 7.4
attribute.measured: IC50 (nM)

[P] O=C(CN1CCC(O)(Cc2ccccc2)CC1)Nc1ccc(O)cc1
[Q] Cc1ccc(CC2(O)CCN(CC(O)Cc3ccc(O)cc3)CC2)cc1 (racemic)
[R] Oc1ccc(CC(O)CN2CCC(O)(Cc3ccc(Cl)cc3)CC2)cc1 (racemic)
Hello, I need these entries ordered by IC50, highest reading first. Thanks! I'd appreciate it if you listed the labels in the requested order.
P, R, Q

====

target.or.system: 3H-Prazosine binding
assay.details: 3H-Prazosine binding
measurement.parameters: rat brain membranes (minus cerebellum and medulla oblongata); 0.2 nM 3H-Prazosine; 30 minutes at room temperature, pH 7.4
Structures can show the parent of a compound that is named as a salt.
attribute.measured: IC50 (µM)

Some solved cases for reference:
{"columns": ["compound", "target.or.system", "attribute.measured", "output.unit", "test.value"],
 "data": [
  ["Cc1ccc(CC2(O)CCN(CCOc3ccc(NS(C)(=O)=O)cc3)CC2)cc1 [E/11, hydrochloride]", "3H-Prazosine binding", "IC50", "µM", 5],
  ["CS(=O)(=O)Nc1ccc(OCCN2CCC(O)(Cc3ccc(F)cc3)CC2)cc1", "3H-Prazosine binding", "IC50", "µM", 6],
  ["O=C(NCCCN1CCC(O)(Cc2ccccc2)CC1)c1ccc(O)cc1", "3H-Prazosine binding", "IC50", "µM", 7.3],
  ["Cc1ccc(CC2(O)CCN(CCOC(=O)c3ccc(O)cc3)CC2)cc1", "3H-Prazosine binding", "IC50", "µM", 0.8],
  ["Cc1ccc(CC2(O)CCN(CCCOC(=O)c3ccc(O)cc3)CC2)cc1", "3H-Prazosine binding", "IC50", "µM", 0.26]
]}

[1] Cc1ccc(CC2(O)CCN(CC(O)Cc3ccc(O)cc3)CC2)cc1 (racemic)
[2] Cc1ccc(CC2(O)CCN(C(C)COc3ccc(O)cc3)CC2)cc1 (stereo not drawn)
Choose between 1 and 2 : whose measured IC50 value is numerically larger? Let me know the label of the one you choose.
1
(1: 9.7 µM, 2: 2.5 µM)

[a] Cc1ccc(CC2(O)CCN(CC(=O)Nc3ccc(O)cc3)CC2)cc1
[b] CS(=O)(=O)Nc1ccc(OCCCN2CCC(O)(Cc3ccc(F)cc3)CC2)cc1
Choose between a and b : whose measured IC50 value is numerically larger? Let me know the label of the one you choose.
a

====

target.or.system: 3H-Ro 25-6981 binding (NMDA receptor) (Rattus norvegicus, UniProt P35439+Q00960)
Construct: NR1 splice forms mixed
assay.details: 3H-Ro 25-6981 binding
measurement.parameters: rat brain membranes (minus cerebellum and medulla oblongata); 5 nM 3H-Ro 25-6981; 2 hours at 4° C., pH 7.4
Where a name gives a salt, the structure may show the parent alone.
attribute.measured: IC50 (nM)

{"columns": ["molecule", "output.unit", "IC50"],
 "data": [
  ["Cc1ccc(CC2(O)CCN(CC(O)Cc3ccc(O)c(F)c3)CC2)cc1 (racemic) [W/94, hydrochloride]", "nM", 20],
  ["Cc1ccc(CC2(O)CCN(CCOc3ccc(NS(C)(=O)=O)cc3)CC2)cc1 [E/11, hydrochloride]", "nM", 30],
  ["O=C(NCCN1CCC(O)(Cc2ccccc2)CC1)c1ccc(O)cc1 [Q/36]", "nM", 10],
  ["Cc1ccc(CC2(O)CCN(C/C=C/c3ccc(O)cc3)CC2)cc1 [V/41]", "nM", 8],
  ["CS(=O)(=O)Nc1ccc(OCCCN2CCC(O)(Cc3ccc(F)cc3)CC2)cc1 [H/14]", "nM", 40],
  ["Cc1ccc(CC2(O)CCN(C(C)COc3ccc(O)cc3)CC2)cc1 (stereo not drawn) [I/22]", "nM", 40],
  ["Oc1ccc(OCCN2CCC(O)(Cc3ccc(F)cc3)CC2)cc1 [D/10]", "nM", 40],
  ["Cc1ccc(CC2(O)CCN(CCCOC(=O)c3ccc(O)cc3)CC2)cc1 [P/35]", "nM", 3],
  ["Oc1ccc(CC(O)CN2CCC(O)(Cc3ccccc3)CC2)cc1 (racemic) [L/30]", "nM", 60],
  ["CS(=O)(=O)Nc1ccc(OCCN2CCC(O)(Cc3ccc(Cl)cc3)CC2)cc1 [G/13]", "nM", 30]
]}

[a] O=C(NCCCN1CCC(O)(Cc2ccccc2)CC1)c1ccc(O)cc1 [S/38]
[b] Cc1ccc(CC2(O)CCN(CCCNC(=O)c3ccc(O)cc3)CC2)cc1 [T/39]
Choose between a and b : whose measured IC50 value is numerically larger? Let me know the label of the one you choose.
a

[a] Oc1ccc(OC[C@@H](O)CN2CCC(O)(Cc3ccccc3)CC2)cc1 [B/5]
[b] Cc1ccc(CC2(O)CCN(CC(=O)Nc3ccc(O)cc3)CC2)cc1 [K/24]
[c] Cc1ccc(CC2(O)CCN(CCNC(=O)c3ccc(O)cc3)CC2)cc1 [R/37]
[d] Cc1ccc(CC2(O)CCN(CCOC(=O)c3ccc(O)cc3)CC2)cc1 [O/34]
List items by IC50 in falling order. I'd appreciate it if you listed the labels in the requested order.
a, b, d, c
(a: 60 nM, b: 40 nM, d: 10 nM, c: 6 nM)
